Property: solubility; scope: individual compounds
Experiment: Solubility of the compound
Format: physicochemical
assay readout: solubility

O=C1c2ccccc2-c2cnn(-c3ccccc3)c21 ... > 10 µM
Cc1nn(-c2ccccc2)c2c1-c1ccccc1C2=O ... > 30 µM
Cc1ccc(-n2ncc3c2C(=O)c2ccccc2-3)cc1 ... > 10 µM
O=C1c2ccccc2-c2cn[nH]c21 ... > 30 µM
COc1ccc(-n2ncc3c2C(=O)c2ccccc2-3)cc1 ... > 10 µM
